Known pKi of a selection of compounds
- MEASURED ON: UniProtKB P30542
- Sequence (P30542 whole entry): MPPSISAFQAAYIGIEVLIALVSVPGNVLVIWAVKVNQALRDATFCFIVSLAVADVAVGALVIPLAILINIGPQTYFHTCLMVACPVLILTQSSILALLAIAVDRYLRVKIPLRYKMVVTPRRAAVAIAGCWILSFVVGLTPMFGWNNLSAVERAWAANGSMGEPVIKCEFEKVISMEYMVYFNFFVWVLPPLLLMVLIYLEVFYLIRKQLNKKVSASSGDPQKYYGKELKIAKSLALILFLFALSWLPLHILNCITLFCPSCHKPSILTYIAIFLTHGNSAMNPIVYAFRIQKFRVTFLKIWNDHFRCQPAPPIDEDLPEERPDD
- TEST DESCRIPTION: Displacement of [3H]CCPA from human adenosine A1 receptor expressed in CHO cells
- Assay type: cell-based
pKi: −log10 of the molar value.

Some compounds with known pKi results, for comparison:
SMILES NOTATION	pKi
O=C(O)c1cnc(NCc2ccc(F)cc2)n2nc(-c3ccco3)nc12	< 4.00
CCOC(=O)c1cnc(NN2CCOCC2)n2nc(-c3ccco3)nc12	< 4.00
O=C(O)c1cnc(NCc2ccc(Cl)cc2)n2nc(-c3ccco3)nc12	< 4.00

Data request: Entry `O=C(O)c1cnc(NCc2ccc(C(F)(F)F)cc2)n2nc(-c3ccco3)nc12` , system UniProtKB P30542: what pKi was measured?
Data returned: < 4.00

Data request: Query for UniProtKB P30542: what pKi does the record show for `O=C(Nc1ncc(C(=O)O)c2nc(-c3ccco3)nn12)NC1CCCCC1` ?
Data returned: < 4.00

Data request: Form entry - test system: UniProtKB P30542; read-out: pKi; compound: `CCOC(=O)c1cnc(SC)n2nc(-c3ccco3)nc12`
Data returned: 5.24

Data request: State its pKi on UniProtKB P30542: `CCNc1ncc(C(=O)OCC)c2nc(-c3ccco3)nn12`
Data returned: 6.79

Data request: Please tell me: pKi of `CCOC(=O)c1cnc(N2CCCC2)n2nc(-c3ccco3)nc12` , system UniProtKB P30542?
Data returned: 4.81

====

- MEASURED ON: Adenosine receptor A2b (Homo sapiens, UniProt P29275)
- Sequence (P29275 whole entry): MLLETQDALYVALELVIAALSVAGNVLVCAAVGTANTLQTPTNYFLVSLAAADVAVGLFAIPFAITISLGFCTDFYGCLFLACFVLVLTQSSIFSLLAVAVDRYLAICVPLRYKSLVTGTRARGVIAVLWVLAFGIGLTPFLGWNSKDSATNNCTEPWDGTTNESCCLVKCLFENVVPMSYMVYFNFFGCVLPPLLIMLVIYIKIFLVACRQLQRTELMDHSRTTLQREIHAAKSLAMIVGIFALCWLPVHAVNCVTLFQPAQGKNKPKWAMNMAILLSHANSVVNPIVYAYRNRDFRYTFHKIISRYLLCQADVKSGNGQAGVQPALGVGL
- TEST DESCRIPTION: Antagonist activity at human adenosine A2B receptor expressed in CHO cells assessed as inhibition of NECA-stimulated adenylyl cyclase activity
Listed next: entries and their corresponding Ki.

Please review the entries below; each comes with its answer.
SMILES NOTATION	Ki
COc1ccc(CNc2ncc(C(=O)NCCc3ccccc3)c3nc(-c4ccco4)nn23)cc1OC	> 30 µM
CCOC(=O)c1cnc(NCc2ccc(Cl)cc2)n2nc(-c3ccco3)nc12	1.63 µM
CCOC(=O)c1cnc(NOC)n2nc(-c3ccco3)nc12	> 10 µM
CCOC(=O)c1cnc(NC(C)C)n2nc(-c3ccco3)nc12	10 µM
CCOC(=O)c1cnc(NCc2ccc(C(F)(F)F)cc2)n2nc(-c3ccco3)nc12	2.04 µM

Next up:
Data request: Recorded Ki of `O=C(Nc1ncc(C(=O)NCCc2ccccc2)c2nc(-c3ccco3)nn12)NC1CCCCC1` , please.
Data returned: > 30 µM

====

pKi for assorted compounds
Target sequence: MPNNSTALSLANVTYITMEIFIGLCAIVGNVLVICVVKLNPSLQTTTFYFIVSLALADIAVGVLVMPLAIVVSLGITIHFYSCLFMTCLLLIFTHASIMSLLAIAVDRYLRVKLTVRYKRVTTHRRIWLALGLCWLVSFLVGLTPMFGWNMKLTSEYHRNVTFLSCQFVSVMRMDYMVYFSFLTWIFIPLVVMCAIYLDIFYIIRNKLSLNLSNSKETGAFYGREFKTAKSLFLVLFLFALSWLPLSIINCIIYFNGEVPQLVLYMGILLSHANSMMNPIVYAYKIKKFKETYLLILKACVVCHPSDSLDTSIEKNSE
pKi: −log10 of the molar value.

SMILES NOTATION	pKi
CCOC(=O)c1cnc(NN2CCOCC2)n2nc(-c3ccco3)nc12	< 4.52

Data request: What value of pKi has been reported for the following compound? `COc1ccc(CCCn2ncc3c2nc(N)n2nc(-c4ccco4)nc32)cc1`
Data returned: < 5.00

Data request: Need pKi of `CCOC(=O)c1cnc(NCc2ccc(F)cc2)n2nc(-c3ccco3)nc12` , thanks.
Data returned: 7.33
